- Test system: Plasmodium berghei
- experiment-summary: Screen against P. berghei liver stage (PbLuc), transformed with Luciferase, at 2uM
- Assay type: functional, HepG2
- measurement-conditions: tested at 2 uM
About 2,700 (4%) of roughly 68,000 compounds showed an effect of 50% or more. This excerpt belongs to a sample that is enriched for strong results.
measured-property: INHIBITION
Note: state the figure and append the unit.

Cn1ccnc1-c1nc(NC2CCCC2)ncc1-c1cccc(F)c1: 14.3%
CC(=O)Nc1nc(C(=O)N2CCCC(n3nc(C)cc3C)C2)cs1 (centres undefined): -45.23%
COCCNc1ncc(-c2cccc(F)c2)c(-c2nccn2C)n1: 27.12%

Here is the next item to consider.
Consider COc1cc(C2CC(=O)Nc3c2nc2n3CCCC2)ccc1O (centres undefined) . Its measured INHIBITION is 0.1%

* * *

- System: Plasmodium berghei
- experiment-summary: Screen against P. berghei liver stage (PbLuc), transformed with Luciferase, at 2uM
- Type: functional, HepG2
- measurement-conditions: tested at 2 uM
Among all 68,000 compounds or so, about 2,700 (4%) showed an effect of 50% or more. The sample holds strong results, similar compounds and a random draw of the others, so the mix is not that of the screen.
measured-property: INHIBITION (%)
Report the figure in % without appending any unit label.

Here is how some compounds turned out for INHIBITION.
O=C(c1cscn1)N1CCC2(CN(Cc3ccncc3)C2)C1: 55.66
Cn1cc(CN2CCC3(CC2)CN(C(=O)c2cnccn2)CCO3)cn1: 2.22
CC(C)NC(=O)Nc1ccc(CNCc2cccc(C#N)c2)cc1: -68.26

So for O=C(Cc1ccco1)N1C[C@H]2CCC[C@@]2(COc2cccnc2)C1 , the logged INHIBITION turned out to be -75.76

Data point: CC(C)n1ccnc1CN1CCOC(CCc2ccccc2)C1 (configuration not stated) ; INHIBITION = 50.32

Measured INHIBITION of Cc1c(C(=O)N2CC(C)(C)C2(C)C)nnn1-c1cccc2cnccc12 : -107.15

Briefly, INHIBITION measured for CCC(C)NC(=O)CN1CCC2(CC1)OCCO2 (configuration not stated) : 34.18

Summary for this compound, Cn1ccnc1CN1CCOC(Cc2ccccc2)C1 (configuration not stated) : INHIBITION is -19.43

Briefly, INHIBITION measured for CN(Cc1ccccn1)C1CC2(CCN(Cc3ccccn3)CC2)C1 : 34.48

Recorded result, Cc1nc(CN(C)C(=O)c2ccc(Cn3cnnn3)cc2)cs1 , INHIBITION: 21.57

The reported value for Cc1c(C(=O)N2CCC2(C)C)nnn1-c1cccc2cnccc12 in terms of INHIBITION is 9.78

According to the records, this compound CC(C)(C)NS(=O)(=O)c1cc(NC(=O)C2CC2)ccc1F displays INHIBITION of 62.51

* * *

- Tested on: Plasmodium berghei
- experiment-summary: Screen against P. berghei liver stage (PbLuc), transformed with Luciferase, at 2uM
- Assay type: functional, HepG2
- measurement-conditions: tested at 2 uM
About 2,700 (4%) of roughly 68,000 compounds showed an effect of 50% or more. Shown is part of a subset that was picked to be rich in strong results.
measured-property: INHIBITION (%)
Quick reminder: number only, in %, skip the unit.

Previously resolved entries follow.
Cc1cc(C(=O)N2CCN(CC(O)Cn3cccn3)CC2)c(C)o1 (stereo not given): 12.62
Cc1cc(CN2CCC(CNS(=O)(=O)c3ccc(Br)s3)CC2)c(C)o1: 23.96
O=C(C1CCCN1Cc1nc(-c2ccco2)no1)N1CCSCC1 (stereo not given): 58.05
c1ccc2oc(CN3CCCC3c3noc(C4CC4)n3)nc2c1 (stereo not given): 63.68
O=C1NCCN1C1CCN(CC(O)c2ccccc2F)CC1 (stereo not given): -54.48

So for O=C(Cc1csc(-c2ccco2)n1)N1CCSCC1 , the logged INHIBITION turned out to be 50.76

INHIBITION recorded for this compound, COc1c(CNC2CCCOc3ccccc32)c(C)nn1C (stereo not given) , is -18.88

* * *

- System: Plasmodium berghei
- experiment-summary: Screen against P. berghei liver stage (PbLuc), transformed with Luciferase, at 2uM
- Assay type: functional, HepG2
- measurement-conditions: tested at 2 uM
Among all 68,000 compounds or so, about 2,700 (4%) showed an effect of 50% or more. Many of the other results were omitted from the sample, so strong results are more common in it than they were.
For each record, check the reported INHIBITION: if it is below 30% write T, else write F.

For orientation, consider the following solved cases.
CCN1C(=O)CCCC12CCCN(C(=O)c1cc(C)oc1C)C2 (stereo unspecified): T
CCCS(=O)(=O)N1CCC2(CC1)CC(N1CCCC1)c1ccccc12 (stereo unspecified): T
Cn1ccnc1CN1CC[C@H](O)[C@@H](n2ccc(=O)[nH]c2=O)CC1: F

Input Cc1nc(CN2CCCC(NCc3ccsc3)C2)no1 (stereo unspecified) ; condition: INHIBITION strictly below 30%. Does it hold?
T

hey, is INHIBITION for COCCOCC(=O)NCc1ccc(N(C)C)nc1 lower than 30% or not?
F

Quick check: does CC(C)c1noc(CCCC(=O)N2CCN(C)CC2c2ccccc2)n1 (stereo unspecified) have INHIBITION under 30%?
T

* * *

- Test system: Plasmodium berghei
- experiment-summary: Screen against P. berghei liver stage (PbLuc), transformed with Luciferase, at 2uM
- Type: functional, HepG2
- measurement-conditions: tested at 2 uM
The campaign covered roughly 68,000 compounds. About 2,700 (4%) showed an effect of 50% or more. The list comes from a sample in which strong results are over-represented; it also holds close analogues and randomly drawn compounds.
Assign labels as follows, please: rule met for INHIBITION below 20%; rule not met for INHIBITION equal to or exceeding 20%.

CC1CCCCN1C(=O)c1nc2c(n1C(C)C)CCN(C)C2 (stereo not drawn): rule met

Lab note: confirm whether the reported INHIBITION for this compound is below 20%, equality not counting. compound: CCc1cc(CNC(=O)NCC(c2ccco2)N2CCCC2)[nH]n1 (stereo not drawn)
rule not met

Hello, I'm reviewing records and need to know if INHIBITION of CCOC(=O)c1n[nH]cc1CN1CCOC(Cc2ccc(F)cc2)C1 (stereo not drawn) is below 20%. Could you check?
rule met

Bench note: check whether Cc1cn(Cc2ccc(F)c(F)c2)nc1N shows INHIBITION below 20%
rule met

Take the compound CCOC(=O)c1n[nH]cc1CN1CCOC(Cc2ccccc2)C1 (stereo not drawn) and say whether its INHIBITION is less than 20%.
rule met

* * *

This listing pairs compounds with measured INHIBITION.
- Tested on: Plasmodium berghei
- experiment-summary: Screen against P. berghei liver stage (PbLuc), transformed with Luciferase, at 2uM
- Type: functional, HepG2
- measurement-conditions: tested at 2 uM
The whole screen tested about 68,000 compounds, of which about 2,700 (4%) showed an effect of 50% or more. What follows is part of a selection rich in strong results, with near analogues and random picks from the rest.
Respond numerically; units are % and should not be typed.

CN(C(=O)c1ccc[nH]1)C1CC(=O)N(Cc2ccccc2)C1=O (stereo not drawn): 29.91

Per the records, this compound ( O=c1c2cnc(N3CCCCC3)nc2ccn1Cc1ccco1 ) has INHIBITION equal to -77.67

Query NCC1CCC(C(NC(=O)c2ccccn2)c2ccccn2)CC1 (stereo not drawn) yields INHIBITION of 8.1

* * *

Listed molecules paired with reported INHIBITION
- System: Plasmodium berghei
- experiment-summary: Screen against P. berghei liver stage (PbLuc), transformed with Luciferase, at 2uM
- Type: functional, HepG2
- measurement-conditions: tested at 2 uM
About 2,700 (4%) of roughly 68,000 compounds showed an effect of 50% or more. This excerpt belongs to a sample that is enriched for strong results.
Just the number in %, nothing appended.

In the examples that follow, each entry is paired with its recorded INHIBITION.
OC(CN1CCN(Cc2cccnc2)CC1)c1cccs1 (centres undefined): -11.22
Cn1ccnc1CN1CCC2(CC1)CC(Oc1cccnc1)C2: 24.83
CCOC(=O)CCNC(=O)c1cc(Cl)cc2cccnc12: -14.21
COc1cccc(CN(C)Cc2[nH]c3ccccc3c2C)c1O: 33.32
Cc1nc(C)n(CC2CCCN(c3ccc(C#N)cn3)C2)n1 (centres undefined): 13.24

So, COC1CC2(CCN(Cc3nccn3C)CC2)C1 ? Its INHIBITION was 52.66

Record CCN(C)C(=O)c1cc(-c2ccn(C(C)C)n2)n2ccccc12 , field INHIBITION: -8.84

Lookup result for O=C(NCc1ccccn1)NCC(O)c1ccccc1C(F)(F)F (centres undefined) ; measured INHIBITION: -19.62

Recorded INHIBITION (molecule COc1cc(NC(=O)c2ccc(CN3CC[C@H](O)C3)cc2)cc(OC)c1 ): 20.71

INHIBITION measured on CCOc1cccc(NS(=O)(=O)c2cc(C)c(C(=O)O)s2)c1 = 40.85

Sure, the documented INHIBITION for CCC(CC)C(=O)N1CCOC2(COCCN(CC(=O)NC)C2)C1 (centres undefined) is 48.52

CC(C)NC(=O)N1CCOC2(CNC2)C1 has a reported INHIBITION of 44.13

According to the records, this molecule COc1cccc(-c2n[nH]cc2-c2nc(CC3CCN(C)CC3)no2)c1 displays INHIBITION of 38.67

The molecule listed as CCC(CC)C(=O)N1CCOC2(CNC2)C1 shows INHIBITION equal to 58.95

Entry Cc1cnn(CC2CN(Cc3nc(C4CC4)no3)CCO2)c1 (centres undefined) , INHIBITION reported as -18.67
